targetOrTestSystem: T1, human MMP2 (pro-MMP2 activated with APMA) (human, UniProt P08253 30-660)
T1 sequence (looked up): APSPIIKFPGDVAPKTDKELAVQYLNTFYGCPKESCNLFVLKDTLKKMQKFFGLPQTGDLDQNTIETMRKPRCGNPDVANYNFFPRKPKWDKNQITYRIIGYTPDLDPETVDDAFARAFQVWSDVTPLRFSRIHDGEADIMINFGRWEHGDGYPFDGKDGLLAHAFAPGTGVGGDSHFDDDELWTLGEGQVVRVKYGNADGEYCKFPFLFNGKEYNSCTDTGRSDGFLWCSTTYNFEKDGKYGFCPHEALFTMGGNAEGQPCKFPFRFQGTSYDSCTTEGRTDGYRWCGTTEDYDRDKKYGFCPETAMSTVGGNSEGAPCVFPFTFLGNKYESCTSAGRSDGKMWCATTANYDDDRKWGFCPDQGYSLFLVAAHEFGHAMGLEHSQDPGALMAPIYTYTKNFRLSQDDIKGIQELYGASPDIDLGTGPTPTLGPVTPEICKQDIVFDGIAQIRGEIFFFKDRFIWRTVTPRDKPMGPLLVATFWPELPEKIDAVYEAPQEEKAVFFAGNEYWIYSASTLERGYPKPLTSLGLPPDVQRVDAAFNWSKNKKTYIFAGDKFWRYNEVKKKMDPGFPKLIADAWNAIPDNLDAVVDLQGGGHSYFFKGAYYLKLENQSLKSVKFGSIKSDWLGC
testDetails: cell-based or functional assay
Reported MMP2 Inhibition Shift values for the following binders.
Please state the figure in fold; there is no need to write the unit.

TIMP-3 mutein K45S, F57N, T63N, K65T, K94N, E96T, R138T, G173T (other) CTCSPSHPQDAFCNSDIVIRASVVGKKLVKEGPNGTLVYNITQMKMYRGFTKMPHVQYIHTEASESLCGLNLTVNKYQYLLTGRVYDGKMYTGLCNFVERWDQLTLSQRKGLNYTYHLGCNCKIKSCYYLPCFVTSKNECLWTDMLSNFTYPGYQSKHYACIRQKGGYCSWYRGWAPPDKSIINATDP : 8
TIMP-3 mutein K45N, V47T, F57N, V97N, K99T, R138T, G173T (other) CTCSPSHPQDAFCNSDIVIRANVTGKKLVKEGPNGTLVYTIKQMKMYRGFTKMPHVQYIHTEASESLCGLKLENNTYQYLLTGRVYDGKMYTGLCNFVERWDQLTLSQRKGLNYTYHLGCNCKIKSCYYLPCFVTSKNECLWTDMLSNFTYPGYQSKHYACIRQKGGYCSWYRGWAPPDKSIINATDP : 6

Shift focus to the following entry.
What value of MMP2 Inhibition Shift has been recorded for this entry: TIMP-3 mutein K50N, V52T, K94N, E96T, R138T, G173T (other) CTCSPSHPQDAFCNSDIVIRAKVVGKNLTKEGPFGTLVYTIKQMKMYRGFTKMPHVQYIHTEASESLCGLNLTVNKYQYLLTGRVYDGKMYTGLCNFVERWDQLTLSQRKGLNYTYHLGCNCKIKSCYYLPCFVTSKNECLWTDMLSNFTYPGYQSKHYACIRQKGGYCSWYRGWAPPDKSIINATDP
2
